These data points were gathered from paper PMC4336329.

# tested.system: human ether-à-go-go-related gene (hERG) potassium channel (human, UniProt Q12809);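 also: peak tail current of the secondary pulse compared with the same well before compound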
# Sequence (Q12809 whole entry, looked up): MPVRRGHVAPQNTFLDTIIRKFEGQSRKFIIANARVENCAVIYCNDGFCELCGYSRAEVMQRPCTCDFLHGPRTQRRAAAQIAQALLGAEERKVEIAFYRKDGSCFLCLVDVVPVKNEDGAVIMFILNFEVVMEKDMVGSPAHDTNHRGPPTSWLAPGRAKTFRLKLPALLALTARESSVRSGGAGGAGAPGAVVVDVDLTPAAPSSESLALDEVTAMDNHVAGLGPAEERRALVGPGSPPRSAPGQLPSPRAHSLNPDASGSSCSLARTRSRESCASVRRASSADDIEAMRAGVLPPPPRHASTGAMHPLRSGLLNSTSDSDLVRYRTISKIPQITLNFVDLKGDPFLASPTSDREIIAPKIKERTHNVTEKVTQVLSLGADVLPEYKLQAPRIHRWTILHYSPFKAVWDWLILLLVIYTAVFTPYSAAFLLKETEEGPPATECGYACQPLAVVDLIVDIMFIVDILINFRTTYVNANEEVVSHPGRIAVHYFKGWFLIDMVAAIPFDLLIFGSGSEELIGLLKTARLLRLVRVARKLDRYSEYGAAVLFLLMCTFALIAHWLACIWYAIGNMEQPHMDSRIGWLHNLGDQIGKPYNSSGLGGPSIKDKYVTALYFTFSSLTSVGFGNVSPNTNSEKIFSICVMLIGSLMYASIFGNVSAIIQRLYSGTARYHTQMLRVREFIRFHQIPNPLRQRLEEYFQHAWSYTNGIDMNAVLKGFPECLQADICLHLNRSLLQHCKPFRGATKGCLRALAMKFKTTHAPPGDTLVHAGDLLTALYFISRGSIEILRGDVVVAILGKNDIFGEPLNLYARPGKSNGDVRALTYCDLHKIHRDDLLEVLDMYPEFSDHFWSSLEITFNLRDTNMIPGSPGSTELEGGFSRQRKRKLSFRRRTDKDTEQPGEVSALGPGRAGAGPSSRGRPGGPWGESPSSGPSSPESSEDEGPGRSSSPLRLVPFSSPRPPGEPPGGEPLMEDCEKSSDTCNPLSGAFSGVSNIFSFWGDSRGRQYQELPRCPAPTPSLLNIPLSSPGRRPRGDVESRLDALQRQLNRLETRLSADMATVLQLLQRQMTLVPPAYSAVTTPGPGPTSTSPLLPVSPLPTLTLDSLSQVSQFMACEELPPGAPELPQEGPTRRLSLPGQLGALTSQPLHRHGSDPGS
# test.description: primary screen, population patch clamp on CHO cells stably expressing hERG; higher = less effect of the substance
The campaign covered roughly 310,000 compounds. About 14,000 (4.5%) showed an effect of 50% or more. Effects have a minus sign here. For the sample, strong results were picked, then their nearest neighbours and some compounds at random.
quantity.name: hERG current change (%, negative = inhibition) at 10uM (%)
Answers are plain numbers, in %.

Check out these entries, answers already filled in.
- C/C(=N\Nc1nnc2c3ccccc3n(C)c2n1)c1ccc(C)o1: -52.4
- COCCN(Cc1nc(-c2ccc(-c3ccccc3)cc2)oc1C)C(C)C: -71.4
- CCN(CC)CCCN(Cc1cc2cc3c(cc2[nH]c1=O)OCO3)C(=S)NCCOC: 5.4
- CCCSc1nnc(CNS(=O)(=O)c2ccc(C)cc2)n1C: 8.4

Ask | Entry NNC(=O)Cn1c(COc2ccc(Cl)cc2)nc2ccccc21 has what hERG current change (%, negative = inhibition) at 10uM?
Reply | -9.34
